Values from patent EP4745130A1

In this section, each of the compounds is paired with its reported pH.
procedureDetails: Dynamic solubility experiment at 37°C (water, SGF, FaSSIF, FeSSIF)
experimentalContext: pH value of the filtrate, FeSSIF, 24 hours
Structures can show the parent of a compound that is named as a salt.
The answer should be written as a number, with no unit following it.

Below are worked cases with known answers.
                                   compound  resultvalue
0  Cc1cc(OCCN2C[C@H]3COC[C@H]3C2)ccc1-c1ccc(CC(=O)NCc2ccccc2)nc1 [Crystal form A of benzenesulfonate salt]          4.9
1  Cc1cc(OCCN2C[C@H]3COC[C@H]3C2)ccc1-c1ccc(CC(=O)NCc2ccccc2)nc1 [Free form crystal form A]          5.4
2  Cc1cc(OCCN2C[C@H]3COC[C@H]3C2)ccc1-c1ccc(CC(=O)NCc2ccccc2)nc1 [Crystal form A of fumarate salt]          4.6

Shift focus to the following entry.
Consider Cc1cc(OCCN2C[C@H]3COC[C@H]3C2)ccc1-c1ccc(CC(=O)NCc2ccccc2)nc1 [Crystal form A of phosphate salt] . Its measured pH is 4.9

---

procedureDetails: Dynamic solubility experiment at 37°C (water, SGF, FaSSIF, FeSSIF)
experimentalContext: SGF, 4 hours, solid feed 10 mg/mL, 240 min
Structures can show the parent of a compound that is named as a salt.
Here, each record is paired with measured S: solubility data.
Be sure to follow the number with its unit.

Reference set (3 entries):
                                   compound      parameter  resultvalue
0  Cc1cc(OCCN2C[C@H]3COC[C@H]3C2)ccc1-c1ccc(CC(=O)NCc2ccccc2)nc1 [Crystal form B of oxalate salt]  S: solubility   9790 µg/mL
1  Cc1cc(OCCN2C[C@H]3COC[C@H]3C2)ccc1-c1ccc(CC(=O)NCc2ccccc2)nc1 [Free form crystal form A]  S: solubility   6770 µg/mL
2  Cc1cc(OCCN2C[C@H]3COC[C@H]3C2)ccc1-c1ccc(CC(=O)NCc2ccccc2)nc1 [Crystal form A of phosphate salt]  S: solubility   9670 µg/mL

# input for lookup
get_value(item= Cc1cc(OCCN2C[C@H]3COC[C@H]3C2)ccc1-c1ccc(CC(=O)NCc2ccccc2)nc1 [Crystal form A of benzenesulfonate salt] , readout=S: solubility) returns 9950 µg/mL

---

procedureDetails: Dynamic solubility experiment at 37°C (water, SGF, FaSSIF, FeSSIF)
experimentalContext: H2O, 24 hours, solid feed 10 mg/mL, 1440 min
Where a name gives a salt, the structure may show the parent alone.
parameter: S: solubility (µg/mL)
Entry rule: numbers only, all in µg/mL.

Per the record, Cc1cc(OCCN2C[C@H]3COC[C@H]3C2)ccc1-c1ccc(CC(=O)NCc2ccccc2)nc1 [Crystal form A of fumarate salt] has S: solubility of 9380

Entry Cc1cc(OCCN2C[C@H]3COC[C@H]3C2)ccc1-c1ccc(CC(=O)NCc2ccccc2)nc1 [Crystal form A of benzenesulfonate salt] — recorded S: solubility = 8120

The recorded S: solubility for Cc1cc(OCCN2C[C@H]3COC[C@H]3C2)ccc1-c1ccc(CC(=O)NCc2ccccc2)nc1 [Crystal form A of phosphate salt] is 9120

GET /value?item= Cc1cc(OCCN2C[C@H]3COC[C@H]3C2)ccc1-c1ccc(CC(=O)NCc2ccccc2)nc1 [Crystal form B of oxalate salt] &field=S: solubility returns 9360

// S: solubility value for Cc1cc(OCCN2C[C@H]3COC[C@H]3C2)ccc1-c1ccc(CC(=O)NCc2ccccc2)nc1 [Free form crystal form A] : 60

---

procedureDetails: Pharmacokinetic test in mice
Format: in vivo
experimentalContext: mouse, plasma; male ICR mice, intravenous injection administration (1 mg/kg)
parameter: clearance (mL/min/kg)
Field: numeric (mL/min/kg). Do not append units.

In [3]: df
Out[3]:
                                   compound  parameter  resultvalue
0  Cc1cc(OCCN2C[C@H]3COC[C@H]3C2)ccc1-c1ccc(CC(=O)NCc2ccccc2)nc1  clearance         34.5

Now turn to the next compound.
Sample O=C(Cc1ccc(-c2ccc(OCCN3CCOCC3)cc2)cn1)NCc1ccccc1 [Control compound, Tirbanibulin, reference compound] ; clearance observed: 31.3
